Tested on: NMuMG cells
EXPERIMENT_DESCRIPTION: High-content microscopy EMT screen in TGFβ-treated NMuMG cells (FA, SF, FN, cell count)
Assay type: cell-based, murine
MEASUREMENT_CONDITIONS: NMuMG; cell count decreased by 50% compared to DMSO control; read-out: Tox IC50
Each entry below lists one item and its recorded IC50 value.
Your answer should be a plain number; it is taken to be in µM.

The compound listed as `CC(C)(C)n1nc(-c2ccc(Cl)cc2)c2c(N)ncnc21` has a reported IC50 of 4.73

The compound listed as `N#CC(=C(/N)Sc1ccccc1N)/C(C#N)=C(/N)Sc1ccccc1N` has a reported IC50 of 1.6

* * *

EXPERIMENTAL_SYSTEM: UniProtKB P00533
Sequence (P00533 25-1210): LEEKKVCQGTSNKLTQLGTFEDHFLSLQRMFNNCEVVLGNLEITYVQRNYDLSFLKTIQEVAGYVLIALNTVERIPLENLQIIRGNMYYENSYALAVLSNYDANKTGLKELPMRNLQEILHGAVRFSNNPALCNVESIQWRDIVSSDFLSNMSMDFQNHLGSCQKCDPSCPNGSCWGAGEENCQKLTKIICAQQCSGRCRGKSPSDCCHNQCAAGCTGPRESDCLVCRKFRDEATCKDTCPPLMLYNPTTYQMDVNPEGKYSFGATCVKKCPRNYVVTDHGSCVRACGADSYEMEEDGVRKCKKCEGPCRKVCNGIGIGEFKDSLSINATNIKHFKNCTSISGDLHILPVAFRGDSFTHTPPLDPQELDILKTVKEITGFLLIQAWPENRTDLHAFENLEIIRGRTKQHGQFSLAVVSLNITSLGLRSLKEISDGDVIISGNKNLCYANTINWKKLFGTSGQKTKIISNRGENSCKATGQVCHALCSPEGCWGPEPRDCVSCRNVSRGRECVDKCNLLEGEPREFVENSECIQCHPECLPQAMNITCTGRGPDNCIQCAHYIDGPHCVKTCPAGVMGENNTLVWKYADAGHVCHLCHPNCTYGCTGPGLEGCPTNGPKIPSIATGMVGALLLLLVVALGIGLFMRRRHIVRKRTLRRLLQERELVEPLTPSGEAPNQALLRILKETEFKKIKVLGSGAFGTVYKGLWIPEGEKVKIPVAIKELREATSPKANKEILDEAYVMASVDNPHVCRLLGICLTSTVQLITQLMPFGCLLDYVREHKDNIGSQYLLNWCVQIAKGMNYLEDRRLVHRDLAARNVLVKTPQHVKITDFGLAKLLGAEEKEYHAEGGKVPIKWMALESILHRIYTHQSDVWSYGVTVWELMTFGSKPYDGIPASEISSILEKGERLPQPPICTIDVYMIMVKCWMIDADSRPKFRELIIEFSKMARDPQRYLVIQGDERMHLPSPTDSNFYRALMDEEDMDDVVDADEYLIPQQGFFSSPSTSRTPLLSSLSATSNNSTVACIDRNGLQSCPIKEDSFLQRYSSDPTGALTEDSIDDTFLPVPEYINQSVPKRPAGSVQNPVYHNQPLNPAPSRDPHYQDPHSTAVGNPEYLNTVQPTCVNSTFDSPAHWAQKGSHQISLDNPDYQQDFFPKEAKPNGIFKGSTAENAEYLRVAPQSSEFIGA
EXPERIMENT_DESCRIPTION: Biochemical kinase profiling (33PanQinase radiometric assay)
MEASUREMENT_CONDITIONS: read-out: EGFR IC50; ATP at apparent Km
pIC50: −log10 of the molar value.
Each entry below lists one item and its recorded pIC50 value.

Cc1cccc(-c2[nH]c(C(C)(C)C)nc2-c2ccc3nccnc3c2)n1	< 5.00

Now consider the entry below.
The compound listed as `Cc1cccc(-c2[nH]ncc2-c2ccc3ncccc3n2)n1` has a reported pIC50 of < 5.00

* * *

Tested on: NMuMG cells
EXPERIMENT_DESCRIPTION: High-content microscopy EMT screen in TGFβ-treated NMuMG cells (FA, SF, FN, cell count)
Format: cell-based, murine
MEASUREMENT_CONDITIONS: NMuMG; cell count decreased by 50% compared to DMSO control; read-out: Tox IC50
METRIC_NAME: log10 of IC50 (log10 of the value in µM)
Hi team, quick reminder: these entries are log10 of IC50 (µM).

The molecule listed as O=C(Nc1ccc(-c2cn[nH]c2)cc1)C1COc2ccccc2O1 (stereo not drawn) [Rho kinase inhibitor V] has a reported log10 of IC50 of 0.79

The molecule listed as O=C(Cc1ccc(-c2ccc(OCCN3CCOCC3)cc2)cn1)NCc1ccccc1 [KX2-391] has a reported log10 of IC50 of -1.82

The molecule listed as COc1cc(OC)cc(-c2cc3cnc(N)nc3nc2NC(=O)NC(C)(C)C)c1 [PD-166866] has a reported log10 of IC50 of 0.53

The molecule listed as Cc1ccc(-c2nn(C(C)(C)C)c3ncnc(N)c23)cc1 [PP1] has a reported log10 of IC50 of 1.06

The molecule listed as CCN(CC)CCCCNc1ncc2cc(-c3c(Cl)cccc3Cl)c(NC(=O)NC(C)(C)C)nc2n1 [PD-161570] has a reported log10 of IC50 of 0.70

* * *

EXPERIMENTAL_SYSTEM: ROCK1 (Homo sapiens)
Sequence (Q13464 whole entry): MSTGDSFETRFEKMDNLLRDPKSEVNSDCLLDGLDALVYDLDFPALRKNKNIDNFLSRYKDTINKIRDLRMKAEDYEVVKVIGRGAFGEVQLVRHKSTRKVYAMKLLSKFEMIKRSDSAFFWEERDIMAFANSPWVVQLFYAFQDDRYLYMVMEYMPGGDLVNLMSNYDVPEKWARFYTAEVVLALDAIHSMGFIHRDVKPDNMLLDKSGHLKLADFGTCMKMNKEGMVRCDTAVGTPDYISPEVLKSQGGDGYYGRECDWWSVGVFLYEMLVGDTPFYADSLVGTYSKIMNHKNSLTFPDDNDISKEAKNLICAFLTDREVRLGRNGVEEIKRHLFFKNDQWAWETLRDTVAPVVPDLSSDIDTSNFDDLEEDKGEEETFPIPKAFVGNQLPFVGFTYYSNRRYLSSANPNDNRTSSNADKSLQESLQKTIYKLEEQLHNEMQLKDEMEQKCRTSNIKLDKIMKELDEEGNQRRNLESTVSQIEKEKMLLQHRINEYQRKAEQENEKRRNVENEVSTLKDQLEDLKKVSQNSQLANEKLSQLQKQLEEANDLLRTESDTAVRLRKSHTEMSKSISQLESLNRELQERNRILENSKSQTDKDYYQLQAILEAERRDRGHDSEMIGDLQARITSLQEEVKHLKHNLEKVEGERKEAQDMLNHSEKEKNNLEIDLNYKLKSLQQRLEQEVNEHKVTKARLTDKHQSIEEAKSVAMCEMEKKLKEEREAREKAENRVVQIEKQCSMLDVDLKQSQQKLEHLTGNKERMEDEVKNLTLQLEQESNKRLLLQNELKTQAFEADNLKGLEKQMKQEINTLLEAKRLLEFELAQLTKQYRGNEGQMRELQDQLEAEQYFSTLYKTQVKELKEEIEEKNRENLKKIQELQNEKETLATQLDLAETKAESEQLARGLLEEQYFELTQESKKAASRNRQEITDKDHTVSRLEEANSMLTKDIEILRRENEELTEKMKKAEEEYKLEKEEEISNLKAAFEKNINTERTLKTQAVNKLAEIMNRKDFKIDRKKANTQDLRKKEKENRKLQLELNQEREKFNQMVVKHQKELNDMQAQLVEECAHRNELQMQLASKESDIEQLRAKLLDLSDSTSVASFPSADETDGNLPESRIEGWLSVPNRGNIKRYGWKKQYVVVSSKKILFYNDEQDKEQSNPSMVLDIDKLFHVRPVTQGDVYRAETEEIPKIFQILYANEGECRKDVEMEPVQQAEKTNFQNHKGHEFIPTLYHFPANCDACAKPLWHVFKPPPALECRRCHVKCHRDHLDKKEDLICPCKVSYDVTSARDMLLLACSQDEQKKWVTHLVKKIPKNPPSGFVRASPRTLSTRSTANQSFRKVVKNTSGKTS
EXPERIMENT_DESCRIPTION: Biochemical kinase profiling (33PanQinase radiometric assay)
METRIC_NAME: IC50 (µM)
Your answer should be a plain number; it is taken to be in µM.

COCCOc1ccc2c(c1)ncn2-c1ccc2cccc(N3CCC(N)CC3)c2n1	3.37

Now consider the entry below.
The compound listed as CC1=C(C(=O)Nc2cc3cn[nH]c3cc2F)C(c2ccc(C(F)(F)F)cc2)CC(=O)N1 (stereo not shown) [GSK429286A] has a reported IC50 of 0.0467

* * *

EXPERIMENTAL_SYSTEM: FGFR3 (Homo sapiens, UniProt P22607)
Sequence (P22607 23-806): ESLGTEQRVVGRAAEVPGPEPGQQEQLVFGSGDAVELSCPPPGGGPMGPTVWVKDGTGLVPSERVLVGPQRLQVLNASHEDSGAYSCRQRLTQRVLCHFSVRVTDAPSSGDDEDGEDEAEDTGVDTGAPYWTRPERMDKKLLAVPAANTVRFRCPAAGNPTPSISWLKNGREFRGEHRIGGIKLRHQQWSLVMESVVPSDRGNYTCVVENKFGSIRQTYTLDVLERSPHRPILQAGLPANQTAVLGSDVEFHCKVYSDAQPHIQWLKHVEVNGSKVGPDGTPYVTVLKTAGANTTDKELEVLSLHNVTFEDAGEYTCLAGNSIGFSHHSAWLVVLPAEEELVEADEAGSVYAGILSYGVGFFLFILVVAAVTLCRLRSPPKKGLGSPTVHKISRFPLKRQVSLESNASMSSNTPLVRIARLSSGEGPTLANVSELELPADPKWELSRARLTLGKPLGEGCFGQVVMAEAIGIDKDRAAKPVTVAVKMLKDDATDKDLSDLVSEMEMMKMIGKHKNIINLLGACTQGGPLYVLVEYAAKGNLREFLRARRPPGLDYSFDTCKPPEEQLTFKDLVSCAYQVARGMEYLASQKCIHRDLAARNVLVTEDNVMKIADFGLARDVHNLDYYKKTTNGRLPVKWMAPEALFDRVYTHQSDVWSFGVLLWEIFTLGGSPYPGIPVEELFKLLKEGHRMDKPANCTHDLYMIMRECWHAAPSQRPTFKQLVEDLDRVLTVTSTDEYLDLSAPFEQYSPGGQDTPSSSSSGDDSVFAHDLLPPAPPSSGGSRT
EXPERIMENT_DESCRIPTION: Biochemical kinase profiling (33PanQinase radiometric assay)
MEASUREMENT_CONDITIONS: read-out: FGFR3 IC50; ATP at apparent Km
Each entry below lists one item and its recorded IC50 value.
Your answer should be a plain number; it is taken to be in µM.

COc1cc(OC)cc(-c2cc3cnc(N)nc3nc2NC(=O)NC(C)(C)C)c1	0.0493

Now consider the entry below.
The compound listed as `CCN(CC)CCCCNc1ncc2cc(-c3c(Cl)cccc3Cl)c(NC(=O)NC(C)(C)C)nc2n1` has a reported IC50 of 0.0272

* * *

Tested on: NMuMG cells
EXPERIMENT_DESCRIPTION: High-content microscopy EMT screen in TGFβ-treated NMuMG cells (FA, SF, FN, cell count)
Type: cell-based, murine
MEASUREMENT_CONDITIONS: Mus musculus, read-out: CCI IC50 (cell count increase)
METRIC_NAME: pIC50
Convention used: pIC50 is expressed as -log10 of the molar concentration.

Some compounds with recorded pIC50:
O=S(=O)(c1cccc2cnccc12)N1CCCNCC1 [Fasudil]	5.54
CCn1c(-c2nonc2N)nc2cncc(C(=O)N3CC[C@H](N)C3)c21 [SB-772077B]	7.30

Now consider the entry below.
The compound listed as CNC(=O)c1cc(Oc2ccc(NC(=O)Nc3ccc(Cl)c(C(F)(F)F)c3)cc2)ccn1 [Sorafenib] has a reported pIC50 of 6.99

* * *

Each entry below lists one item and its recorded pIC50 value.
Tested on: NMuMG cells
EXPERIMENT_DESCRIPTION: High-content microscopy EMT screen in TGFβ-treated NMuMG cells (FA, SF, FN, cell count)
Format: cell-based, murine
MEASUREMENT_CONDITIONS: Mus musculus, 96 h; NMuMG, TGFβ1 2 ng/ml plus compound, 4 days; parameter decreased by 50%; read-out: FA IC50 (focal adhesion formation)
Convention used: pIC50 is expressed as -log10 of the molar concentration.

The compound listed as CCN(CC)CCOc1ccc(Nc2ncc3cc(-c4c(Cl)cccc4Cl)c(=O)n(C)c3n2)cc1 [PD-166285] has a reported pIC50 of 7.57

* * *

Tested on: Py2T cells
EXPERIMENT_DESCRIPTION: High-content microscopy EMT assay in TGFβ-treated Py2T breast cancer cells
Type: cell-based, murine
MEASUREMENT_CONDITIONS: Mus musculus; Py2T, TGFβ-induced EMT; read-out: IC50 for reduction of EMT markers
pIC50: −log10 of the molar value.
METRIC_NAME: pIC50

The compound listed as NC(=O)c1ccc(-c2nc(-c3ccc4c(c3)OCO4)c(-c3ccccn3)[nH]2)cc1 [SB-431542] has a reported pIC50 of ~6.70

* * *

EXPERIMENTAL_SYSTEM: FGFR3 (Homo sapiens, UniProt P22607)
EXPERIMENT_DESCRIPTION: Biochemical kinase profiling (33PanQinase radiometric assay)
Each entry below lists one item and its recorded IC50 value.
Your answer should be a plain number; it is taken to be in µM.

COCCOc1ccc2c(c1)ncn2-c1ccc2cccc(N3CCC(N)CC3)c2n1	9.09

The compound listed as `CCN(CC)CCOc1ccc(Nc2ncc3cc(-c4c(Cl)cccc4Cl)c(=O)n(C)c3n2)cc1` has a reported IC50 of 0.009

* * *

EXPERIMENTAL_SYSTEM: VEGFR1 (Homo sapiens, UniProt P17948)
Sequence (P17948 27-1338): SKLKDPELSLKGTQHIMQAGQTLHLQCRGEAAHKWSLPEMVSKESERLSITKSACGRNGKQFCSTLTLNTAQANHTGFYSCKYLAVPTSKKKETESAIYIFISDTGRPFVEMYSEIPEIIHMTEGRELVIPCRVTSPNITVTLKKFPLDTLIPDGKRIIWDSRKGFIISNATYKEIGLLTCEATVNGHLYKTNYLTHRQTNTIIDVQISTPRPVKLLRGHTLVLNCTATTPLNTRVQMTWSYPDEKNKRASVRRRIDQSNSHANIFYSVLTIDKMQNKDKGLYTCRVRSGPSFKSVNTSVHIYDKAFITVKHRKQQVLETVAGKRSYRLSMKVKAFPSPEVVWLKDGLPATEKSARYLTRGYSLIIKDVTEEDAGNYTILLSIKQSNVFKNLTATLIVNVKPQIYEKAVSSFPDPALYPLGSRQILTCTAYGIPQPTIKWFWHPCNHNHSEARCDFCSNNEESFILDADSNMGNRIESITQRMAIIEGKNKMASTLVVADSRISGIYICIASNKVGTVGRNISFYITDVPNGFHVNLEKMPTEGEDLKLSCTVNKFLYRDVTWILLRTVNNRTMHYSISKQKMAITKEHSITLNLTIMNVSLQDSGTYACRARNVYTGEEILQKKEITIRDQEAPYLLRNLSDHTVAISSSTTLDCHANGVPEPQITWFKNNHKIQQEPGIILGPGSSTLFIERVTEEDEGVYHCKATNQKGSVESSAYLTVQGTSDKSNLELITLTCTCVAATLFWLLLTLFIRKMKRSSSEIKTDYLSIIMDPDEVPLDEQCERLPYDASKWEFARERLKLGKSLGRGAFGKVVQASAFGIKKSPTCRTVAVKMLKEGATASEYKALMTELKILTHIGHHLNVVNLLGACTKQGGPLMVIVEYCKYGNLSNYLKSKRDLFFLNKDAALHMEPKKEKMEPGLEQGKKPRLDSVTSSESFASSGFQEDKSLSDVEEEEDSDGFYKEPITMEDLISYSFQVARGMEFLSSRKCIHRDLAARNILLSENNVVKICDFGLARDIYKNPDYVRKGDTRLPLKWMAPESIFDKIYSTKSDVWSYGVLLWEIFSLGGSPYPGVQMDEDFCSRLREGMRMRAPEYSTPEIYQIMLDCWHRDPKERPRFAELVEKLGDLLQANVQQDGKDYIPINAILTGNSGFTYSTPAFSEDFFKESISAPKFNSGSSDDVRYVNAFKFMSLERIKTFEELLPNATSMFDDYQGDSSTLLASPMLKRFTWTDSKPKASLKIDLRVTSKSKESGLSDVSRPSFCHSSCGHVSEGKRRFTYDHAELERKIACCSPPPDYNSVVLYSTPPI
METRIC_NAME: IC50 (µM)
Your answer should be a plain number; it is taken to be in µM.

The molecule listed as `Cc1cccc(-c2[nH]ncc2-c2ccc3ncccc3n2)n1` has a reported IC50 of 1.08

* * *

Each entry below lists one item and its recorded pIC50 value.
EXPERIMENTAL_SYSTEM: TGFBR1 (Homo sapiens)
Sequence (P36897 34-503): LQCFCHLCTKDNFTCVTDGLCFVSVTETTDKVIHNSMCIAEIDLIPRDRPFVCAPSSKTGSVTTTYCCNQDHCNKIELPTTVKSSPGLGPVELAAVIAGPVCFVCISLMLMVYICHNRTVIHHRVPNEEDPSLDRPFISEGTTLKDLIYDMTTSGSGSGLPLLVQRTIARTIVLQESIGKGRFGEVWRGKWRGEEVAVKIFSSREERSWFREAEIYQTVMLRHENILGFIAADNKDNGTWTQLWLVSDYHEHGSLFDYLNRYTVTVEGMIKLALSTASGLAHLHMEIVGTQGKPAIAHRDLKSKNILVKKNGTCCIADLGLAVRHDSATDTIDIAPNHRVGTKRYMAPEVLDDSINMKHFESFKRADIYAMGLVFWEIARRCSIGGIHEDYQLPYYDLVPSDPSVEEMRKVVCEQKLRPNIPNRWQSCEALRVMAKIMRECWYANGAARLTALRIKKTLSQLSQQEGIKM
EXPERIMENT_DESCRIPTION: Biochemical kinase profiling (33PanQinase radiometric assay)
Convention used: pIC50 is expressed as -log10 of the molar concentration.

The compound listed as COC(=O)c1ccc2c(c1)NC(=O)/C2=C(\Nc1ccc(N(C)C(=O)CN2CCN(C)CC2)cc1)c1ccccc1 [Nintedanib] has a reported pIC50 of 6.30

The compound listed as CCN(CC)CCOc1ccc(Nc2ncc3cc(-c4c(Cl)cccc4Cl)c(=O)n(C)c3n2)cc1 [PD-166285] has a reported pIC50 of 8.17

* * *

Test system: NMuMG cells
EXPERIMENT_DESCRIPTION: High-content microscopy EMT screen in TGFβ-treated NMuMG cells (FA, SF, FN, cell count)
Format: cell-based, murine
MEASUREMENT_CONDITIONS: NMuMG; mean of IC50 values obtained for FA, SF, FN; read-out: EMT (FA/SF/FN) combined IC50
Each entry below lists one item and its recorded IC50 value.
Your answer should be a plain number; it is taken to be in µM.

Cc1ccc2c(c1)C(=O)C1(O)CCN(c3ccccc3)C1=N2 (stereo not shown) [Blebbistatin]	3.36
Cc1cccc(-c2[nH]ncc2-c2ccc3ncccc3n2)n1 [RepSox]	0.0487
O=C(Nc1ccc(-c2cn[nH]c2)cc1)C1COc2ccccc2O1 (stereo not shown) [Rho kinase inhibitor V]	0.457

The compound listed as C[C@@H](N)[C@H]1CC[C@H](C(=O)Nc2ccncc2)CC1.Cl.Cl [Y-27632 2HCl] has a reported IC50 of 1.72

* * *

Each entry below lists one item and its recorded IC50 value.
System: ROCK
EXPERIMENT_DESCRIPTION: ROCK cellular assay (MLC Thr18/Ser19 phosphorylation ELISA in A7r5 cells)
Format: cell-based, rat
MEASUREMENT_CONDITIONS: 90 min compound

The compound listed as `Cc1[nH]c(/C=C2\C(=O)Nc3ccccc32)c(C)c1CCC(=O)O` has a reported IC50 of > 10 µM

The compound listed as `NC(=O)c1ccc(NC(=O)NCc2cccc(C(=O)Nc3ccc4c(c3)CNCC4)c2)cc1` has a reported IC50 of > 10 µM

The compound listed as `CCn1c(-c2nonc2N)nc2cnc(Oc3cccc(NC(=O)c4ccc(OCCN5CCOCC5)cc4)c3)cc21` has a reported IC50 of < 0.003 µM
